tgt: FGFR4 (Homo sapiens)
Sequence (P22455 22-802, species assumed): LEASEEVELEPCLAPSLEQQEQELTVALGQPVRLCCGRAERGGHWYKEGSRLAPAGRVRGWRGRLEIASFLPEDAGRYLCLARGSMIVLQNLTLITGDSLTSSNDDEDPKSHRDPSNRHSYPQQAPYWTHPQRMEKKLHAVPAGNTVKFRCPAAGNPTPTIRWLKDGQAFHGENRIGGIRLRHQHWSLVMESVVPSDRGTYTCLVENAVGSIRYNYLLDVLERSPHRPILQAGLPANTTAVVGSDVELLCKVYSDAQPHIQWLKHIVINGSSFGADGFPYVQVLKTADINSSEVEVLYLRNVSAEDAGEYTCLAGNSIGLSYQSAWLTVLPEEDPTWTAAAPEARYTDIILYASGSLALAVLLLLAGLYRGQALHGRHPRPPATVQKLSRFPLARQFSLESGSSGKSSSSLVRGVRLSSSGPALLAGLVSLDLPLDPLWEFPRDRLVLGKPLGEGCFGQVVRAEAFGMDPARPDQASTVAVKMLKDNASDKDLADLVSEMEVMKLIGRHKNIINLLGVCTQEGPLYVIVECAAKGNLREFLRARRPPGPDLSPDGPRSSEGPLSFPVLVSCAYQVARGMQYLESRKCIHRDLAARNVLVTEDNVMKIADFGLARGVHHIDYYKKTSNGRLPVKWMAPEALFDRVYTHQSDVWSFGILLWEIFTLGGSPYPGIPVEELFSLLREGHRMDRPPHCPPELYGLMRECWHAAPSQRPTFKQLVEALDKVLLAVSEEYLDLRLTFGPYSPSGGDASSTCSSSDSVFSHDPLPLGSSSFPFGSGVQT
measure_name: IC50

{"columns": ["query_smiles", "observed_value"],
 "data": [
  ["COc1cc(OC)c(Cl)c(-c2cc3cnc(Nc4ccc(N5CCC(N6CCOCC6)CC5)cc4)nc3n3cnnc23)c1", "21 nM"]
]}

====

tgt: FGFR3 (Homo sapiens, UniProt P22607)
Sequence (P22607 23-806, species assumed): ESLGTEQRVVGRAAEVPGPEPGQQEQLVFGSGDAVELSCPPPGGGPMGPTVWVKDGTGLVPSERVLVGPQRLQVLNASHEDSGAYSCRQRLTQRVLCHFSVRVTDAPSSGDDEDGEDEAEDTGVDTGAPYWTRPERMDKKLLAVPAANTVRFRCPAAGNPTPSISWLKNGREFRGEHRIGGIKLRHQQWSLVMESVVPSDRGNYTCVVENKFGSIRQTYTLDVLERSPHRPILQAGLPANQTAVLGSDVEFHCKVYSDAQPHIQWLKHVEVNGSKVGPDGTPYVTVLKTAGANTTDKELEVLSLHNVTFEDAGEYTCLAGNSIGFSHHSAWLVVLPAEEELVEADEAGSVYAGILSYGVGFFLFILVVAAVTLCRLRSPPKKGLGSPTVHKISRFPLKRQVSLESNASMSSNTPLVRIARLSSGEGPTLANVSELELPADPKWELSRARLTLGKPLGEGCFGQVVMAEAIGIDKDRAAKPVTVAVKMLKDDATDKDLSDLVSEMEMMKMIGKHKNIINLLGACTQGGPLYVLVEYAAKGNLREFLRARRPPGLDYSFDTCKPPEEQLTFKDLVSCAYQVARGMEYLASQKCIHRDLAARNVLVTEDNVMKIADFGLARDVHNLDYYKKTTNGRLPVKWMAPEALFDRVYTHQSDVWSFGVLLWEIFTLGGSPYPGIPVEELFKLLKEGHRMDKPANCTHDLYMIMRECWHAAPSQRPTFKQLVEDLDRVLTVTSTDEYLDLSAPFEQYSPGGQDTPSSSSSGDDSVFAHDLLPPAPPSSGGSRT
pIC50: −log10 of the molar value.
measure_name: pIC50

{"columns": ["query_smiles", "measure_name", "observed_value"],
 "data": [
  ["COc1cc(OC)c(Cl)c(-c2cc3cnc(Nc4ccc(N5CCC(N6CCOCC6)CC5)cc4)nc3n3cnnc23)c1", "pIC50", 8.92]
]}
